Please go through the items and note down their viability, T/C.
- System: MPNST multicellular tumor spheroids, viability % test/control
- measurement-notes: Anticancer human tumor MPNST cell line growth inhibition;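 also: luminescence signal used as surrogate for viable cell amount; spheroids exposed to agents for seven days after three days of growth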
- condition-notes: second compound 31.6 µM; first compound 0.0949 µM; active compounds read low
Give bare numbers, in %.

Please report viability, T/C for every entry that follows.
1. Cn1ncnc1[C@H]1c2n[nH]c(=O)c3cc(F)cc(c23)N[C@@H]1c1ccc(F)cc1 + Cn1nnc2c(C(N)=O)ncn2c1=O
2. Cc1sc2c(c1C)C(c1ccc(Cl)cc1)=NC(CC(=O)Nc1ccc(O)cc1)c1nnc(C)n1-2 (centres undefined) + Cn1nnc2c(C(N)=O)ncn2c1=O
3. CNCc1ccc(-c2cc(-c3nc(-c4ccc(S(=O)(=O)C(C)C)cc4)cnc3N)on2)cc1 + Cn1nnc2c(C(N)=O)ncn2c1=O

Marked response:
[58.1, 91.7, 79.8]

Exam item: State the recorded viability, T/C for this entry: O=C(c1cc(Cc2n[nH]c(=O)c3ccccc23)ccc1F)N1CCN(C(=O)C2CC2)CC1 + Cn1nnc2c(C(N)=O)ncn2c1=O
Marked response: 82.6

----------
Please go through the items and note down their viability, T/C.
- Test system: MPNST multicellular tumor spheroids, viability % test/control
- measurement-notes: Anticancer human tumor MPNST cell line growth inhibition;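 also: luminescence signal used as surrogate for viable cell amount; spheroids exposed to agents for seven days after three days of growth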
- condition-notes: second compound 10 µM; first compound 1 µM; active compounds read low
Answers are plain numbers, in %.

Observe how each entry below is paired with its result.
COc1ccc([C@@H](O)c2cc(-c3ncnc4cc(N5CCOCC5)ccc34)c(F)cc2Cl)nn1 + Cn1nnc2c(C(N)=O)ncn2c1=O: 65.5
[2H]c1nc(C)nc([2H])c1-c1cc(NC[C@@H](C)c2cccc3c(C(=O)NC)ccnc23)ncn1 + Cn1nnc2c(C(N)=O)ncn2c1=O: 116
COc1cc(C)[nH]c(=O)c1CN1CCc2c(Cl)cc(C(OC)C3COC3)c(Cl)c2C1=O (stereo unspecified) + Cn1nnc2c(C(N)=O)ncn2c1=O: 97.8

Please report viability, T/C for every entry that follows.
1. Cc1cc(C)c(CNC(=O)c2cc(-c3ccc(CN4CCOCC4)cc3)cc3c2cnn3C2CCCC2)c(=O)[nH]1 + Cn1nnc2c(C(N)=O)ncn2c1=O
2. CC(C)n1c(=O)n(C)c2cnc3cc(F)c(-c4ccc(OCCCN5CCCCC5)nc4)cc3c21 + Cn1nnc2c(C(N)=O)ncn2c1=O
3. CC1COCCN1c1cc(-c2ccnn2C)c2ccnc(-c3ccn[nH]3)c2n1 (stereo unspecified) + Cn1nnc2c(C(N)=O)ncn2c1=O

Marked response:
[91, 74.8, 38.2]

----------
- Test system: MPNST multicellular tumor spheroids, viability % test/control
- measurement-notes: Anticancer human tumor MPNST cell line growth inhibition;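 also: luminescence signal used as surrogate for viable cell amount; spheroids exposed to agents for seven days after three days of growth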
- condition-notes: second compound 0.0003 µM; first compound 3 µM; active compounds read low
readout: viability, T/C (%)
Numbers only, in %.

Cn1ncnc1[C@H]1c2n[nH]c(=O)c3cc(F)cc(c23)N[C@@H]1c1ccc(F)cc1 + COc1cc2c(cc1O)CCNC21CSC2c3c(OC(C)=O)c(C)c4c(c3C(COC1=O)N1C(O)C3Cc5cc(C)c(OC)c(O)c5C(C21)N3C)OCO4: 41.9

Please report viability, T/C for every entry that follows.
1. Cc1sc2c(c1C)C(c1ccc(Cl)cc1)=NC(CC(=O)Nc1ccc(O)cc1)c1nnc(C)n1-2 (centres undefined) + COc1cc2c(cc1O)CCNC21CSC2c3c(OC(C)=O)c(C)c4c(c3C(COC1=O)N1C(O)C3Cc5cc(C)c(OC)c(O)c5C(C21)N3C)OCO4
2. CNCc1ccc(-c2cc(-c3nc(-c4ccc(S(=O)(=O)C(C)C)cc4)cnc3N)on2)cc1 + COc1cc2c(cc1O)CCNC21CSC2c3c(OC(C)=O)c(C)c4c(c3C(COC1=O)N1C(O)C3Cc5cc(C)c(OC)c(O)c5C(C21)N3C)OCO4
3. O=C(c1cc(Cc2n[nH]c(=O)c3ccccc23)ccc1F)N1CCN(C(=O)C2CC2)CC1 + COc1cc2c(cc1O)CCNC21CSC2c3c(OC(C)=O)c(C)c4c(c3C(COC1=O)N1C(O)C3Cc5cc(C)c(OC)c(O)c5C(C21)N3C)OCO4

Marked response:
1. 22.4
2. 46.8
3. 34.5
